assay: Logarithmic association constant determined by ethidium displacement from DNA co-polymers (adenine & thymine)
# maps each entry to its Log K
No unit in the answer, only the number.

Reported Log K, compound CCCCCCNc1c2ccccc2nc2c(C(=O)NCCN(C)C)cccc12 : ____
7

Next up: NCCNC(=O)c1cccc2c(N)c3ccccc3nc12
7.36

Next up: CN(C)CCNC(=O)c1ccc2c(N)c3ccccc3nc2c1
7.18

Next up: CN(C)CCNC(=O)c1ccc2nc3ccccc3c(N)c2c1
7.08

Next up: CN1CCN(C(=O)c2cccc3c(N)c4ccccc4nc23)CC1
6.58

Next up: CN(C)CCCCCNC(=O)c1cccc2c(N)c3ccccc3nc12
7.45

Next up: CCCCCNc1c2ccccc2nc2c(C(=O)NCCN(C)C)cccc12
6.91

Next up: CCNc1c2ccccc2nc2c(C(=O)NCCN(C)C)cccc12
7.14

Next up: CCCCNc1c2ccccc2nc2c(C(=O)NCCN(C)C)cccc12
7.1

Next up: Nc1c2ccccc2nc2c(C(=O)NCCN3CCOCC3)cccc12
7.29
